- experimental system: Alpha-2B adrenergic receptor (Homo sapiens, UniProt P18089)
- Sequence (P18089 whole entry): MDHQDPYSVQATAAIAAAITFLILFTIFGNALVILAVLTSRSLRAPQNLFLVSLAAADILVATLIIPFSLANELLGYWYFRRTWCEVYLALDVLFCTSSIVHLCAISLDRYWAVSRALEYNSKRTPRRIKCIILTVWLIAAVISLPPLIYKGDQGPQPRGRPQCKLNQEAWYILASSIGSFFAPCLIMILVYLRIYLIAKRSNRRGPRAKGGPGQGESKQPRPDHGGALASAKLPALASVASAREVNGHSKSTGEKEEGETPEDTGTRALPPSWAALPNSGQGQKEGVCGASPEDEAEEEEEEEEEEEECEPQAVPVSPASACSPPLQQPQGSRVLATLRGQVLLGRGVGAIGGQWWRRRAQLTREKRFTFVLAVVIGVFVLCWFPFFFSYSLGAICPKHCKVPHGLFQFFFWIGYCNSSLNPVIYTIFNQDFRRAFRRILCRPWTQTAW
parameter measured: IC50 (nM)
Express it in nM; write the number only.

Input line: I am curious: what IC50 value has been reported for `Fc1cncc(-c2nc3cc(F)c(F)cc3n2C2CC2)c1` ?
Output line: 2490
